- Run description: qHTS for identification of novel therapeutic agents for treatment of microphthalmiaassociated transcription factor (MiT) renal cell carcinoma (RCC) (AID 1963991);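 note: curves scaled with 100% = DMSO viability and 0% = empty wells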
- Condition notes: TFE3-RCC viability, CellTiter-Glo, 48 h; measured here: UOK145 Z-AUC; stronger effect = lower value
Inconclusive results are not listed.
Experimental endpoint: z-score
Answer using only a numeral; do not append any unit.

Ask: Any idea what z-score was measured for CCN(CC)CCNC(=O)c1c(C)[nH]c(C=C2C(=O)Nc3ccc(F)cc32)c1C ?
Result: -1.38

Ask: Return reported z-score; argument: CN1[C@H]2CC(OC(=O)[C@@H](CO)c3ccccc3)C[C@H]1[C@H]1O[C@H]12 (stereo not given in full)
Result: 0.977

Ask: State the recorded z-score for this entry: C=C1CCC2[C@](C)(CO)C(O)CC[C@]2(C)C1CC=C1C(=O)OCC1O (stereo not given in full)
Result: 1.09

Ask: Which z-score is listed for C[C@H]1COc2c(N3CCN(C)CC3)c(F)cc3c(=O)c(C(=O)O)cn1c23 ?
Result: 1.39

Ask: Using the record for CCCc1nc(C(C)(C)O)c(C(=O)O)n1Cc1ccc(-c2ccccc2-c2nn[nH]n2)cc1 , report its z-score.
Result: 0.646

* * *

- System: UISO
- Run description: qHTS assay to identify novel small-molecules to repurpose for Merkel cell carcinoma treatment (AID 1296009); note: nearly all actives have a fitted effect of over 60% in size
- Condition notes: MCC and control cell lines, CellTiter-Glo viability, 72 h; series mostly up to 46 µM
Results filed as inconclusive are left out. Calls of active or inactive are those of the source. Calls follow the shape of the dose curve; as a rule, active = well fitted inhibition curve with a large enough effect; inconclusive = small, poorly fitted or top-dose-only effect; inactive = flat fitted curve, though single readings scatter.
// allowed return values: active, inactive

Ask: Please indicate how the test categorized Cc1ccc(O)c(C(CCN(C(C)C)C(C)C)c2ccccc2)c1 (stereo unspecified) .
Result: inactive

Ask: // outcome(item) with item = Cc1cnn(C)c1C(=O)Nc1cc(Nc2ccc3c(C=Cc4ccccn4)n[nH]c3c2)ccc1F
Result: active

Ask: Lab log entry: CC(C)N(CC[C@H](c1ccccc1)c1cc(CO)ccc1O)C(C)C — outcome as called in the assay?
Result: inactive

Ask: Just curious, what result did CC(=O)N[C@@H]1[C@H](O[C@@H]2c3ccc(c(Cl)c3)Oc3cc4cc(c3O[C@H]3O[C@H](CO)[C@@H](O)[C@H](O)[C@H]3NC(=O)CCCCCCCC(C)C)Oc3ccc(cc3Cl)C[C@H]3NC(=O)[C@H](N)c5ccc(O)c(c5)Oc5cc(O)cc(c5)[C@H](NC3=O)C(=O)N[C@H]4C(=O)N[C@H]3C(=O)N[C@@H]2C(=O)N[C@@H](C(=O)O)c2cc(O)cc(O[C@H]4O[C@H](CO)[C@@H](O)[C@H](O)[C@H]4O)c2-c2cc3ccc2O)O[C@H](CO)[C@@H](O)[C@@H]1O get here?
Result: inactive

Ask: Assay result, entry COc1ccnc2[nH]cc(C(=O)C(=O)N3CCN(C(=O)c4ccccc4)C[C@@H]3C)c12 — outcome?
Result: inactive

Ask: Dear colleague, could you share the recorded outcome for CC[C@H](CC[C@@H](C)[C@H]1CC[C@H]2[C@@H]3CC=C4C[C@@H](O)CC[C@]4(C)[C@@H]3CC[C@]12C)C(C)C when you have a moment?
Result: inactive

* * *

- Run description: Quantitative High-Throughput drug screen in 47 multiple myeloma cell lines against the NCATS MIPE library collection: NCIH929_DSMZ cell viability assay (AID 1918978); note: nearly all actives have a fitted effect of over 35% in size; note: potency is the fitted concentration of half-maximal effect
- Condition notes: NCI-H929 myeloma viability, CellTiter-Glo ATP, 48 h; series mostly up to 45.8 µM
Results filed as inconclusive are left out. Active and inactive are the calls of the source. Calls follow the shape of the dose curve; as a rule, active = well fitted cell-killing curve with a large enough effect; inconclusive = small, poorly fitted or top-dose-only effect; inactive = no such curve, though single readings can be large or run the other way.
Experimental endpoint: Potency

Examples with answers:
CCOC(=O)[C@@H](N)Cc1ccc(-c2cc(O[C@H](c3ccc(Cl)cc3-n3ccc(C)n3)C(F)(F)F)nc(N)n2)cc1 | 18.7 µM (active)
COc1cccc2c1C(=O)c1c(O)c3c(c(O)c1C2=O)C[C@@](O)(C(C)=O)C[C@H]3O[C@H]1C[C@H](N)[C@H](O)[C@H](C)O1 | 0.0469 µM (active)
CCC(C(=O)O)C1CCC(C)C(C(C)C(O)C(C)C(=O)C(CC)C2OC3(C=CC(O)[C@@]4(CC[C@](C)(C5CC[C@@](O)(CC)C(C)O5)O4)O3)C(C)CC2C)O1 (stereo partly drawn) | 10.5 µM (active)
N#Cc1cc(NC(=O)Nc2nnc(-c3ccncc3)s2)ccc1-c1cn[nH]c1 | inactive

Ask: Sample Cc1nc(NC(=O)N2CCC[C@@H]2C(N)=O)sc1-c1ccnc(C(C)(C)C(F)(F)F)c1 — what was its Potency?
Result: 0.148 µM (active)

Ask: Dear colleague, I am looking for the recorded Potency of the following compound: NC(=NCCCCCCN=C(N)N=C(N)Nc1ccc(Cl)cc1)N=C(N)Nc1ccc(Cl)cc1
Result: 3.32 µM (active)

Ask: Item C=CC(=O)Nc1ccc2ncnc(Nc3ccc(OCc4cccc(F)c4)c(Cl)c3)c2c1 has what recorded Potency?
Result: 4.18 µM (active)

Ask: Form field: reported Potency of NC[C@H]1O[C@H](O[C@H]2[C@@H](O)[C@@H](O[C@H]3O[C@H](CO)[C@@H](O)[C@H](N)[C@@H]3O)[C@H](N)C[C@@H]2N)[C@H](N)C[C@H]1O
Result: inactive

Ask: Return reported Potency; argument: CC(=O)SCC(Cc1ccccc1)C(=O)NCC(=O)OCc1ccccc1 (stereo not drawn)
Result: 1.05 µM (active)

Ask: Request the reported Potency associated with O=C(O)C=Cc1ccc(Cn2ccnc2)cc1
Result: inactive

Ask: Would you kindly share the measured Potency for CCCCOc1ccc(C(=O)Nc2ccc(F)cc2F)cc1 ?
Result: inactive

Ask: Report Potency for N[C@H]1CN(c2c(F)cc3c(=O)c(C(=O)O)cn(C4C[C@@H]4F)c3c2Cl)CC12CC2 (stereo partly drawn) please.
Result: inactive

* * *

- Run description: qHTS of pediatric cancer cell lines to identify multiple opportunities for drug repurposing: Primary screen for RD cells (AID 1347104); note: nearly all actives have a fitted effect of over 55% in size
- Condition notes: RD rhabdomyosarcoma viability, CellTiter-Glo luminescence, 48 h; series mostly up to 46 µM
Results filed as inconclusive are left out. Activity calls are given as the source filed them. Calls follow the shape of the dose curve; as a rule, active = well fitted cell-killing curve with a large enough effect; inconclusive = small, poorly fitted or top-dose-only effect; inactive = flat fitted curve, though single readings scatter.
Select the matching outcome among active, inactive

Ask: Any idea what this test logged for Cc1cnc(NC(=O)Nc2cc(Br)c(C)cc2OC[C@@H]2CNCCO2)cn1 ?
Result: inactive

Ask: For Cn1cc(C[C@@H](N)C(=O)O)c2ccccc21 , what call appears in the results of this test?
Result: inactive

Ask: For C=C(C)[C@@H]1CC[C@]2(C)CC[C@]3(C)[C@H](CC[C@@H]4[C@@]5(C)CC[C@H](O)C(C)(C)[C@H]5CC[C@]43C)[C@@H]12 , what call appears in the results of this test?
Result: inactive

Ask: Please state the recorded outcome for this compound: CN(C)CC(=O)N1CCC(c2ccc(NC(=O)c3ncc(C#N)[nH]3)c(C3=CCCCC3)c2)CC1
Result: active

Ask: Hi, do you know how C[C@]12CC[C@@H]3c4ccc(O)cc4CC[C@H]3[C@H]1CC[C@H]2O came out in this test?
Result: active

Ask: Per the records of this test, what outcome belongs to CC(=O)OCC(=O)[C@@]12N=C(C)O[C@H]1C[C@H]1[C@@H]3CCC4=CC(=O)C=C[C@]4(C)[C@@H]3[C@@H](O)C[C@@]12C ?
Result: inactive

Ask: Please share the test call associated with C[C@](Cc1c[nH]c2ccccc12)(NC(=O)OC1C2CC3CC(C2)CC1C3)C(=O)NC[C@H](NC(=O)CCC(=O)O)c1ccccc1 (stereo partly drawn) .
Result: inactive

Ask: What outcome does the record of this test show for CC[C@H](CC[C@@H](C)[C@H]1CC[C@H]2[C@@H]3CC=C4C[C@@H](O)CC[C@]4(C)[C@@H]3CC[C@]12C)C(C)C ?
Result: inactive

* * *

- Run description: qHTS of pediatric cancer cell lines to identify multiple opportunities for drug repurposing: Confirmatory screen for SJ-GBM2 cells (AID 1347116);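 note: 48 hour compound exposure; nearly all actives have a fitted effect of over 60% in size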
- Condition notes: SJ-GBM2 glioblastoma cells, viability; series mostly up to 45.9 µM
- Procedure: Drug repurposing or repositioning has been offered as a strategy for drug development in oncology programs. […] [1] Shen, M et al. Quantitative high-throughput phenotypic screening of pediatric cancer cell lines identifies multiple opportunities for drug repurposing. […] Cells were assayed in growth media at a density of 500-1,000 cells/well. […] After a 15 min incubation at room temperature, samples were analyzed for luminescence intensity using a ViewLux High-throughput CCD imager equipped with clear filters.
Records with an inconclusive call do not appear. Activity calls are given as the source filed them. The call rests on the fitted dose curve; in most records, active means well fitted cell-killing curve with a large enough effect; inconclusive means small, poorly fitted or top-dose-only effect, or effect the other way; inactive means no such curve, though single readings can be large or run the other way. Non-standard residues stand in square brackets, D forms with d. Residues, ends and D or L forms follow the SMILES beside them. *: point of attachment. Nva = CCC[C@H](N)C(=O)O; Cbz = O=C(OCc1ccccc1)*
Use one of these outcomes when replying: label 1 for active, label 0 for inactive

Ask: Hello, I am checking results. What call was entered for CN[C@H]1[C@@H](O)[C@@H]2O[C@@H]3O[C@H](C)CC(=O)[C@]3(O)O[C@@H]2[C@@H](NC)[C@H]1O ?
Result: label 0

Ask: Query: recorded result category for C=CC(=O)Nc1cccc(Nc2nc(NC3CCC(N(C)C)CC3)nc3c2ncn3C(C)C)c1 (stereo not given) in this test
Result: label 1

Ask: Short answer needed: outcome of this test for CNC(=O)c1cccc(-c2ccc3c(N4CCOC[C@H]4C)nc(N4CCOC[C@H]4C)nc3n2)c1 ?
Result: label 1

Ask: I would be grateful if you could indicate the recorded call for CC(C)C[C@H](NC(=O)[C@@H](NC(=O)c1cccc(-c2ccccc2)n1)[C@@H](C)O)B(O)O .
Result: label 1

Ask: What is the recorded call for this compound in the test? CC(C)N1[N]C(=C2C=c3cc(O)ccc3=N2)c2c(N)ncnc21
Result: label 1

Ask: What was the test verdict on CC(=O)NCC(=O)N1[C@H]2CC[C@H]1c1cc(Nc3ncc(C(F)(F)F)c(NC4CCC4)n3)ccc12 ?
Result: label 1

Ask: GET /call?item= O=C(C=CC=Cc1ccc2c(c1)OCO2)N1CCCCC1 returns the recorded outcome of this test.
Result: label 0

Ask: What was the test verdict on Cn1c(Nc2ccc(C(F)(F)F)cc2)nc2cc(Oc3ccnc(-c4ncc(C(F)(F)F)[nH]4)c3)ccc21 ?
Result: label 0

Ask: Test call for this compound, please: CNC(=O)c1ccc(Nc2cc(Nc3ccccc3S(=O)(=O)C(C)C)c3cc[nH]c3n2)nc1
Result: label 1

Ask: Each compound tested received a call. Report the one for CC(C)C[C@H](NC(=O)CNC(=O)c1cc(Cl)ccc1Cl)B1OC(=O)CC(CC(=O)O)(C(=O)O)O1 (stereo not given in full) .
Result: label 1

Ask: Please share the test call associated with CC(=O)O[C@H]1C[C@@H]2CC[C@H]3[C@H]4C[C@H]([N+]5(C)CCCCC5)[C@@H](OC(C)=O)[C@@]4(C)CC[C@@H]3[C@@]2(C)C[C@H]1N1CCCCC1 .
Result: label 1

Ask: Please indicate how the test categorized CC(C=CC(=O)NO)=C[C@@H](C)C(=O)c1ccc(N(C)C)cc1 .
Result: label 1

Ask: Dear colleague, could you share the recorded outcome for Nc1ncn([C@@H]2O[C@H](CO)[C@@H](O)[C@@H]2O)c(=O)n1 when you have a moment?
Result: label 1

Ask: Please share the test call associated with CNC(=O)Nc1ccc(-c2nc(N3CC4CCC(C3)O4)c3cnn(C4CCC5(CC4)OCCO5)c3n2)cc1 .
Result: label 1

Ask: Given CCC[C@@H](C=O)NC(=O)[C@H](CC(C)C)NC(=O)[C@H](CC(C)C)NC(=O)OCc1ccccc1 (Cbz-Leu-Leu-[Nva]-aldehyde) , state the outcome it received in this test.
Result: label 1

Ask: State the result this test recorded for CCOc1cc2ncc(C#N)c(Nc3ccc(OCc4ccccn4)c(Cl)c3)c2cc1NC(=O)C=CCN(C)C .
Result: label 1

Ask: Per the records of this test, what outcome belongs to CC[C@@]1([C@@H]2O[C@@H]([C@H]3O[C@@](O)(CO)[C@H](C)C[C@H]3C)C[C@H]2C)CC[C@H]([C@]2(C)CC[C@]3(C[C@H](O)[C@@H](C)[C@@H]([C@@H](C)[C@@H](OC)[C@H](C)C(=O)O)O3)O2)O1 ?
Result: label 1

Ask: Field: outcome | Entry: Oc1ccc(-c2ccc(-c3cc(Nc4cccc(CNC5CC5)c4)n[nH]3)cc2)c(O)c1
Result: label 1

Ask: Hi, sorry to bother you, what did the test record for COc1cccc2c1C(=O)c1c(O)c3c(c(O)c1C2=O)C[C@@](O)(C(=O)CO)C[C@@H]3O[C@H]1C[C@H](N)[C@@H](O)[C@H](C)O1 ?
Result: label 1

Ask: Recorded test call requested for C[C@H](NCc1ccc2c(c1)nc(NC(=O)c1ccc(-c3cn[nH]c3)s1)n2CCc1ccccc1)C(C)(C)C
Result: label 1
